Record form. Attribute: protein stability index. Fill in for each entry.
- test name: protein stability index of a GFP-peptide fusion (GPS, HEK-293T) (PSI 1-6); higher = more stable;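 also: 24-mer peptide tiles fused after GFP, lentivirally expressed, FACS-sorted into six equal bins by GFP/DsRed ratio, decoded by Illumina sequencing, PSI is the read-weighted mean bin number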
- setup conditions: treatment: MLN4924 1 uM, 8 h; c terminus: a fixed tail appended

Which protein stability index reading was recorded for the sequence NRPLSLKDQQTFARSVGLKWRKVG [TRADD] ?
3.17

What protein stability index value was documented for this sequence, RVLHDFGLDGYRGYSLADWVCLAY [SPACA3] ?
2.21

I am curious: what protein stability index value has been reported for ILIREAQNQPIDKARKTYERLVAQ [CSTF3] ?
2.82

Which value of protein stability index has been reported for LHYKWIPVEDSHTADISSHFQEAI [DUSP5] in the records?
2.25

Give its protein stability index value. Item: ILKHTPKEHPDVQLLEDAILIIQG [NET1]
1.99

Field request: protein stability index | item: CPRPCRESAFKLSTGTSRWPSAKS [SCNN1D]
2.65

Query: protein stability index; subject: LPSVFGSLRDSGYFYDPIERDIEI [RSPH3]
2.64

Quick one: protein stability index for TIEECCRKQKQELCEKFDYLYGIL [TRIM55] ?
2.41

Requested field: protein stability index. Item: LRLEGLLCDVTLMPGDTDDAFPVH [KLHL13]
2.48

Quick one: protein stability index of RSANGFPYREDEEGAFGEHGSQGT [MAP2] ?
5.41

# query: protein stability index of entry FGERRIPRGRRISVICRSLPEGMG [ALKBH7]
2.87

Which protein stability index value is on record for LELVINYQQLCIYWTKYYDFKNPI [OAS1] ?
3.33

// protein stability index lookup, key: LPCQHNLCRKCANDIFQAANPYWT [TRIM63]
2.29

Give its protein stability index value. Item: LATTEKKTEQQRRREKAVHRLRVQ [NOP53]
4.37

What protein stability index value was documented for this sequence, LALGRERLGEIHTLPLPASLKAYL [SPSB1] ?
2.15

protein stability index for IKEAKEQHPDMSVTKVVVHKETEI [EPB41L3] ?
5.02

// lookup protein stability index for ESKDQGKTLALARTMDIPRSVQNF [ALDH8A1]
4.18

Quick one: protein stability index for ERNRMHGLNDALDNLRKVVPCYSK [NEUROD6] ?
3.02

// query protein stability index value for entry LTFAKSSWARQESLQERKQALYEY [AUP1]
2.67

Tell me the measured protein stability index of AIALANSDSMHIEDVEAVQKLQDV [ESRRG] , please.
4.66

Data request, read-out protein stability index, for VILAVSYMSQVLEKEMKAQEQRLG [GMPPB]
2.08

I have this sequence here, QQTKLEAEKLKVQALKDRGLSIPR [LSM1] , and I need its recorded protein stability index.
4.21

Item under review: LLLGTAYSFYLFHPLAYGMVGPLA [POMT2] . Reported protein stability index?
3.18

What value of protein stability index has been recorded for this entry: SEADASHCIQQILESVNHCHLNGI [CAMK2D]
2.89

What protein stability index value was documented for this sequence, TPRRVFANAHTYHINSISVNSDYE [PPP2R2B] ?
3.12

Query: protein stability index; subject: LFIILQVGLNTIADLWYLFGDLSL [POMT2]
3.17

Which protein stability index is reported for this sequence? YLRPQSNYSSSQDALISVSYTIIT [OR10K2]
2.68

Could you tell me which protein stability index is on file for LREIVHKPGPITLTVAKCWDPSPR [DVL3] ?
2.93

State the recorded protein stability index for this entry: MSSHLVEPPPPLHNNNNNCEENEQ [BNIP3L]
5.67

Suppose we examine the sequence VISCLEQGEEPWVQVSPEFKDSAG [ZNF75A] ; what protein stability index value has been reported?
4.68

Need protein stability index, item EAGAPGEEDIQGPTKADTEKWAEG [CHGB]
5.59

Using the record for QETLTNISAVNYDFDEEYFSNTSE [DAPK3] , report its protein stability index.
5.41

Suppose we examine the sequence DRDSIWKCLKFLGSRHPTLVLPLV [INTS4] ; what protein stability index value has been reported?
2.15

Which value of protein stability index has been reported for QFLFIYQLPFCGPNVIDNFLCDLY [OR4A15] in the records?
2.86

Which protein stability index is reported for this sequence? TKILVVNAAYFVGKWMKKFPESET [SERPINB5]
2.53

Any idea what protein stability index was measured for KSKVVGDRENGSDNLPSSAGSGDK [TPD52L2] ?
5.55

Endpoint output: protein stability index of CDFKIDAGDRFLEALGFSWHDTCF [PDLIM7] . Value?
2.47

GET /values?readout=protein stability index&item= IDDLEDDPVVNGERSGCALTDAVA [TCF25]
5.37

Fill in the blank: the reported protein stability index of LKHQTVYRLLKCAPRGKNGFTPLH [FEM1A] is ____.
2.39

Data request, read-out protein stability index, for LYYQSQELPNGSVKEAPAPTPTSL [PDZK1]
3.93

What measured protein stability index goes with MGQWQLEVGDPAPLGAGNLGPELI [DPCD] ?
3.48

May I ask what protein stability index has been recorded for SLARNPAPGVLTNKRKTYTESYIA [ZC2HC1A] ?
3.23

Returns the measured protein stability index for the input sequence. Input: TEVITASEFHPHHCNLFVYSSSKG [PPP2R2C]
2.97

Quick one: protein stability index for TKIRALQGSLENMSKLLKRQNDIL [CD207] ?
2.57

What value of protein stability index has been recorded for this entry: SRSSLMPLRNDVDKRGETTSASLL [SLC2A12]
4.56

Can you look up the measured protein stability index of SNPGVDFGDVSERLALRQRLKCRS [GALNT9] for me?
4.56

Give the measured protein stability index of SATCTTGVMSAYAMCVRYDGVEVD [ADAMTSL2] .
2.63

Give its protein stability index value. Item: QRDSKRWSRLEEFDVFSPKQDLVP [DLC1]
3.8

Returns the measured protein stability index for the input sequence. Input: GLQSPGTLQPPEFLYSHGVPRTLS [TBX5]
3.49

# get_value(readout='protein stability index', item= AVSESYSAPGACEEPTERGNLEVG [FBXO34] )
5.57

For the sequence PGPASGPGPDTGPDSELSPCIPPG [SPAG8] , what protein stability index is on record?
5.36

Returns the measured protein stability index for the input sequence. Input: WEEAQSPANCPACREPSPKMDFKT [TRIM43]
4.83

Would you mind telling me what protein stability index value was observed for LRFCHNNKKAKRYLLHGLECVVAM [EIF5] ?
2.23
